Cited source for all entries: ChEMBL document CHEMBL5608242

The following compounds are listed with their measured pIC50 values.
molecular target: Histone deacetylase 1 (Homo sapiens); assay: biochemical
Sequence (Q13547 whole entry): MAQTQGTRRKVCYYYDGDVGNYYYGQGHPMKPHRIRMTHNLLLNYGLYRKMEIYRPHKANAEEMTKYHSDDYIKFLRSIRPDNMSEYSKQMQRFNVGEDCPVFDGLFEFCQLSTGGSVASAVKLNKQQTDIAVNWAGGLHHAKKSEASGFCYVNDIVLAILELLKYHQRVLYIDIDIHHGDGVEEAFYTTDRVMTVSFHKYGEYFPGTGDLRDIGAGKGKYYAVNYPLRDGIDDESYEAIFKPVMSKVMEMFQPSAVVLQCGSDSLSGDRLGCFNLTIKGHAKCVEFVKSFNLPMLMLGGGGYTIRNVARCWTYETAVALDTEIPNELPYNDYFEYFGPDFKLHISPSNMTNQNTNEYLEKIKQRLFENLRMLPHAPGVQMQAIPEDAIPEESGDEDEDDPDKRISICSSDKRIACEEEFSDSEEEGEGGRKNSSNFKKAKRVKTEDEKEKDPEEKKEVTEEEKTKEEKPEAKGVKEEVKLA
pIC50: −log10 of the molar value.

The cases that follow already have their pIC50 on record.
NNC(=O)c1ccc(S(=O)(=O)n2ccc3cc(OCc4ccccc4)ccc32)cc1 = < 5.00
O=C(NO)c1ccc(S(=O)(=O)n2ccc3cc(OCc4ccccc4)ccc32)cc1 = 5.40
NNC(=O)c1ccc(S(=O)(=O)n2ccc3cc(OCCCN4CCCCC4)ccc32)cc1 = < 5.00
C#CCN1CCN(CCCOc2ccc3c(ccn3S(=O)(=O)c3ccc(C(=O)NN)cc3)c2)CC1 = < 5.00
O=C(NO)c1ccc(S(=O)(=O)n2ccc3cc(OCCCN4CCCCC4)ccc32)cc1 = 6.13

// moving on: another record for pIC50
Look at this compound and give its reported pIC50. COc1ccc2c(ccn2S(=O)(=O)c2ccc(C(=O)NN)cc2)c1
< 5.00
